Recorded IC50 values for a group of compounds are listed next.
system: HCT-116 human colorectal carcinoma cells; assay: Cell-proliferation assay using Alamar Blue dye; format: cell-based; details: Homo sapiens, HCT-116, second HCT-116 column (c8); read-out: HCT-116 (uM) cell proliferation modulatory activity;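 note: cells exposed to compound for about 4 days, then Alamar Blue added and dye fluorescence read after about 4 h, compared with medium-only control wells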

[
  {
    "compound": "COC(=O)c1ccc2c(c1)nc(NCCn1cccc1)c1ccncc12",
    "IC50": "9.97 µM"
  },
  {
    "compound": "Clc1cccc(Nc2nc3cc(-c4nnn[nH]4)ccc3c3cscc23)c1",
    "IC50": "> 10 µM"
  },
  {
    "compound": "Cc1ccccc1Nc1nc2cc(C(=O)NC3CC3)ccc2c2cnc(NC3CC3)nc12",
    "IC50": "> 10 µM"
  },
  {
    "compound": "CNC(=O)c1ccc2c(c1)nc(N(C)c1ccccc1)c1nc(NC3CC3)ncc12",
    "IC50": "9.74 µM"
  },
  {
    "compound": "Cc1cc(Nc2nc3cc(C(=O)O)ccc3c3cnccc23)c2ccccc2n1",
    "IC50": "> 10 µM"
  },
  {
    "compound": "c1cc2c(NCC3CCCN3)nc3cc(-c4nnn[nH]4)ccc3c2s1 (centres unmarked)",
    "IC50": "> 10 µM"
  },
  {
    "compound": "N#Cc1ccc2c(c1)nc(NCC1CCCN1)c1ccsc12 (centres unmarked)",
    "IC50": "2.73 µM"
  },
  {
    "compound": "CN1CCC(Nc2nc3cc(C#N)ccc3c3sccc23)CC1",
    "IC50": "3.44 µM"
  }
]

Quick note, IC50 for Cc1ccc(Nc2nc3cc(C(=O)O)ccc3c3cnccc23)cc1 landed at > 10 µM

Quick note, IC50 for CCN1CCCC1CNc1nc2cc(-c3nnn[nH]3)ccc2c2sccc12 (centres unmarked) landed at 0.397 µM

Quick note, IC50 for COC(=O)c1ccc2c(c1)nc(NCCCOC(C)C)c1ccncc12 landed at > 10 µM
